Biological target: recombinant human Meningioma Expressed Antigen 5 (MGEA5), also referred to as O-GlcNAcase (OGA) (Homo sapiens)
Construct: Full length OGA enzyme was purchased at OriGene (cat # TP322411); purchased OriGene TP322411
Sequence (O60502 whole entry): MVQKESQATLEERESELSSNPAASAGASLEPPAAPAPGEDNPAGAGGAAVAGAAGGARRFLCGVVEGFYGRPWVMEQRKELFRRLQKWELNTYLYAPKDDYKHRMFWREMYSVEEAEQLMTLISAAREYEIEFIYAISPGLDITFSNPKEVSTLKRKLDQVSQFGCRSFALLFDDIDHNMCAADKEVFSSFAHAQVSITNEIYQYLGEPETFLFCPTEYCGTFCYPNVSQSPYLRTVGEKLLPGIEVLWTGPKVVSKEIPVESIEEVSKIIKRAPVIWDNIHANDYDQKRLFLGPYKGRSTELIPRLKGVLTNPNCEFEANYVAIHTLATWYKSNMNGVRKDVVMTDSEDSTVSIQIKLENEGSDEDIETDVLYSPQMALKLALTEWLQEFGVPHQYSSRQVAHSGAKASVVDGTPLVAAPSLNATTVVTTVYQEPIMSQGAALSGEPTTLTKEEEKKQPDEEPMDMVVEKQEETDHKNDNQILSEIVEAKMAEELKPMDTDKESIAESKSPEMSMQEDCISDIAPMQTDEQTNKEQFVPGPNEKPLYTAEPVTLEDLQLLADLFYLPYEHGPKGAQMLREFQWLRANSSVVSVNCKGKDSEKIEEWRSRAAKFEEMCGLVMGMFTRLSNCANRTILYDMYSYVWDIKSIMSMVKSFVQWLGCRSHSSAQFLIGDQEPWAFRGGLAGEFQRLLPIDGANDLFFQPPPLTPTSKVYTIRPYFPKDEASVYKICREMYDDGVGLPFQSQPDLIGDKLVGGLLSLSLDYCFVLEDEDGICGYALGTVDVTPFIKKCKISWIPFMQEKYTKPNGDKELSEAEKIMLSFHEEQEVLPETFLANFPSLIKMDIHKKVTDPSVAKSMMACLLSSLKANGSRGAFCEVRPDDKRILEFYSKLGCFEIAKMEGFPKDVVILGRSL
Assay: OGA biochemical assay: inhibition of FM-GlcNAc hydrolysis, fluorescence; protocol A (10 nM OGA, 1 h) or protocol B (2 nM OGA, 6 h)
Settings: Enzymatic protocol B (2 nM OGA, 6 h)
experimental endpoint: Enzymatic Emax (%)

molecule | Enzymatic Emax (%)
COc1cncc(CC2CCN(Cc3cnc(NC(C)=O)s3)C2)n1 (stereo not shown) | 101
Cc1cc(C[C@H]2CCN(Cc3ccc4c(c3)OCCO4)C2)cc(C)n1 | 81.7
CC(=O)Nc1ncc(CN2CC[C@H](Cc3cc(C)nc(C(F)(F)F)c3)C2)s1 | 102.4
Cc1cc(CC2CCCN(C(C)c3ccc4sc(C)nc4c3)C2)cc(C)n1 (single isomer, unassigned) | 103.7
CC(=O)Nc1ncc(CN2CCC(Cc3ccc(C(F)(F)F)cn3)C2)s1 (stereo not shown) | 101.5
CC(=O)Nc1ncc(CN2CC[C@H](Cc3cc(C)ncc3C(F)(F)F)C2)s1 | 101.4
Cc1cc(CC2CCN(C(C)c3ccc4c(c3)OCCO4)C2)cc(C)n1.Cl.Cl (mixture of isomers) | 101
CC(=O)Nc1ncc(CN2CCC(Cc3cc(C(F)(F)F)cc(C)n3)C2)s1 (stereo not shown) | 101.3
CC(=O)Nc1ncc(CN2CC[C@H](Cc3ccc(C)nc3)C2)s1 | 101.2
CC(=O)Nc1ncc(CN2CC[C@H](Cc3ccnc(C)c3)C2)s1 | 101.9
